Values were extracted from ChEMBL document CHEMBL1764959.

Target: Mitogen-activated protein kinase 8 (Homo sapiens, UniProt P45983)
Sequence (P45983 whole entry): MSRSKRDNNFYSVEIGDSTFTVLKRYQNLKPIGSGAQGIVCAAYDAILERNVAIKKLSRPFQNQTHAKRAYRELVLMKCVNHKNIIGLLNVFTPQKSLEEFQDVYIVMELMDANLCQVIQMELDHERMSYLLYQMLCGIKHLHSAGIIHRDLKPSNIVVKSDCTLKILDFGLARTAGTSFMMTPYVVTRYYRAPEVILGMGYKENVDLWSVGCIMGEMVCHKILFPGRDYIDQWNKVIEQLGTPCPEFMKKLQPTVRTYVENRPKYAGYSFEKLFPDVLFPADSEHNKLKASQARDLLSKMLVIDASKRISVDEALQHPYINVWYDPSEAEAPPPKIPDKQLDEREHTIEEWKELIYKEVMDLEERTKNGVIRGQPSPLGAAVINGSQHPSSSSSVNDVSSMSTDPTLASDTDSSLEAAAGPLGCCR
Test: Inhibition of JNK1 by TR-FRET assay
reported_property: IC50

1. N#Cc1cccc(CC(=O)Nc2sccc2C(N)=O)c1    20.9 µM
2. NC(=O)c1ccsc1NC(=O)CN1CCOCC1    > 50 µM
3. NC(=O)c1ccsc1NC(=O)Cc1ccc2c(c1)OCO2    1.8 µM
4. NC(=O)c1ccsc1NC(=O)Cc1coc2ccccc12    > 25 µM

// batch mode: one IC50 value per listed entry
1. Cc1cccc(CC(=O)Nc2sccc2C(N)=O)c1
2. O=C(Cc1cccc2ccccc12)Nc1sccc1C(=O)O
3. COc1ccc2cc(Br)ccc2c1CC(=O)Nc1sccc1C(N)=O
4. NC(=O)c1ccsc1NC(=O)Cc1cccc([N+](=O)[O-])c1

Key:
["5.4 µM", "> 100 µM", "> 25 µM", "> 25 µM"]

// batch mode: one IC50 value per listed entry
1. NC(=O)c1ccsc1NC(=O)Cc1c(F)cccc1Cl
2. Cc1ccc(CC(=O)Nc2sccc2C(N)=O)cc1
3. NC(=O)c1ccsc1NC(=O)Cc1c(F)c(F)c(F)c(F)c1F

Key:
1: 12.5 µM; 2: 4.3 µM; 3: > 50 µM

// batch mode: one IC50 value per listed entry
1. NC(=O)c1ccsc1NC(=O)Cc1csc2nc(-c3cccs3)cn12
2. COc1ccc(CC(=O)Nc2sccc2C(N)=O)cc1
3. NC(=O)c1ccsc1NC(=O)CN1CCN(C(=O)C2CC2)CC1
4. NC(=O)c1ccsc1NC(=O)Cc1ccc2c(c1)CCCC2
5. CC(C)c1ccc(CC(=O)Nc2sccc2C(N)=O)cc1
6. COc1ccc(CC(=O)Nc2sccc2C(N)=O)cc1OC
7. NC(=O)c1ccsc1NC(=O)Cc1cc(F)cc(F)c1
8. NC(=O)c1ccsc1NC(=O)CN1CCN(Cc2ccco2)CC1

Key:
2.5 µM
5.7 µM
83.5 µM
3.6 µM
> 25 µM
> 25 µM
8.2 µM
7.6 µM

---

Molecular target: Mitogen-activated protein kinase 9 (Homo sapiens, UniProt P45984)
Sequence (P45984 whole entry): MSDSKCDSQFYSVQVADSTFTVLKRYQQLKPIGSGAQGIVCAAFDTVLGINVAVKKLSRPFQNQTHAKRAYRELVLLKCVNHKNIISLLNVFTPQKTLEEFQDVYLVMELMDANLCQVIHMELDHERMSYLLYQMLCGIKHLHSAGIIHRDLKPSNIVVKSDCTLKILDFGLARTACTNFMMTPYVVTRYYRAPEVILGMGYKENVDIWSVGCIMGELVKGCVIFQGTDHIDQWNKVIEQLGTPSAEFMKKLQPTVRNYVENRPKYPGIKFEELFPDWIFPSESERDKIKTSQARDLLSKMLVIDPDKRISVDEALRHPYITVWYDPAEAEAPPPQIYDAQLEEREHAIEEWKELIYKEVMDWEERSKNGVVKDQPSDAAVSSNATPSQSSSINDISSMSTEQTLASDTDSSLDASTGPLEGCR
Assay: Binding affinity to JNK2
reported_property: pKd
Give bare numbers, as −log10 of the molar value.

Exercise: Could you tell me which pKd is on file for NC(=O)c1ccsc1NC(=O)Cc1csc2ccccc12 ?
Key: 6.19

---

Molecular target: Mitogen-activated protein kinase 8 (Homo sapiens)
Assay: Inhibition of JNK1 by TR-FRET assay
Note to self: IC50 under 6 µM means true, ties and anything higher get false.

Worked set:
1) NC(=O)c1ccsc1NC(=O)Cc1cc(F)ccc1F    true
2) CCOc1ccc(CC(=O)Nc2sccc2C(N)=O)cc1    true
3) NC(=O)c1ccsc1NC(=O)Cc1ccc(Cl)cc1    false
4) CC(C)Cc1ccc(CC(=O)Nc2sccc2C(N)=O)cc1    false
5) COC(=O)c1ccsc1NC(=O)Cc1cccc2ccccc12    false

Exercise: Confirm or reject: IC50 of NC(=O)c1ccsc1NC(=O)/C=C/c1ccccc1 lies strictly below 6 µM
Key: false

Exercise: Confirm or reject: IC50 of NC(=O)c1ccsc1NC(=O)Cc1cccc(F)c1 lies strictly below 6 µM
Key: false

Exercise: Confirm or reject: IC50 of NC(=O)c1ccsc1NC(=O)Cc1ccc(-c2ccccc2)cc1 lies strictly below 6 µM
Key: false

Exercise: Confirm or reject: IC50 of NC(=O)c1ccsc1NC(=O)Cc1ccc2ccc3cccc4ccc1c2c34 lies strictly below 6 µM
Key: false

Exercise: Confirm or reject: IC50 of NC(=O)c1ccsc1NC(=O)Cc1ccc2ccccc2c1 lies strictly below 6 µM
Key: false

Exercise: Confirm or reject: IC50 of NC(=O)c1ccsc1NC(=O)Cc1ccc2c(c1)CCC2 lies strictly below 6 µM
Key: true

---

Molecular target: Mitogen-activated protein kinase 8 (Homo sapiens, UniProt P45983)
Assay: Inhibition of JNK1 by TR-FRET assay
Note to self: IC50 under 3 µM means yes, ties and anything higher get no.

Exercise: Confirm or reject: IC50 of N#Cc1ccsc1NC(=O)Cc1cccc2ccccc12 lies strictly below 3 µM
Key: no

Exercise: Confirm or reject: IC50 of NC(=O)c1ccsc1NC(=O)Cc1cccc(C(F)(F)F)c1 lies strictly below 3 µM
Key: no

Exercise: Confirm or reject: IC50 of N#Cc1ccc(CC(=O)Nc2sccc2C(N)=O)cc1 lies strictly below 3 µM
Key: no

Exercise: Confirm or reject: IC50 of COc1cccc(CC(=O)Nc2sccc2C(N)=O)c1 lies strictly below 3 µM
Key: yes

Exercise: Confirm or reject: IC50 of NC(=O)c1ccsc1NC(=O)Cc1ccccc1Br lies strictly below 3 µM
Key: yes

---

Target: Mitogen-activated protein kinase 8 (Homo sapiens)
Assay: Inhibition of JNK1 by TR-FRET assay
Note to self: IC50 under 9 µM means T, ties and anything higher get F.

1) NC(=O)c1ccsc1NC(=O)Cc1csc2ccccc12    T
2) NC(=O)c1ccsc1NC(=O)Cc1ccccc1I    T
3) NC(=O)c1ccsc1NC(=O)Cc1nc2ccccc2[nH]1    F
4) NC(=O)c1ccsc1NC(=O)CN1CCN(S(=O)(=O)c2ccccc2C(F)(F)F)CC1    F
5) NC(=O)c1ccsc1NC(=O)CCc1ccccc1    F

Exercise: Confirm or reject: IC50 of NC(=O)c1ccsc1NC(=O)Cc1cc(F)cc2c1OCOC2 lies strictly below 9 µM
Key: T

Exercise: Confirm or reject: IC50 of NC(=O)c1ccsc1NC(=O)Cc1ccc(C(F)(F)F)cc1 lies strictly below 9 µM
Key: T

Exercise: Confirm or reject: IC50 of Cc1cc(C)cc(CC(=O)Nc2sccc2C(N)=O)c1 lies strictly below 9 µM
Key: T

Exercise: Confirm or reject: IC50 of NC(=O)c1ccsc1NC(=O)Cc1cc(Cl)c2c(c1)OCCCO2 lies strictly below 9 µM
Key: T

Exercise: Confirm or reject: IC50 of COc1ccccc1CC(=O)Nc1sccc1C(N)=O lies strictly below 9 µM
Key: F

Exercise: Confirm or reject: IC50 of NC(=O)c1ccsc1NC(=O)Cc1ccccc1F lies strictly below 9 µM
Key: T

Exercise: Confirm or reject: IC50 of NC(=O)c1ccsc1NC(=O)Cc1cccnc1 lies strictly below 9 µM
Key: T

Exercise: Confirm or reject: IC50 of COc1ccc2c(CC(=O)Nc3sccc3C(N)=O)c(Br)ccc2c1 lies strictly below 9 µM
Key: F

Exercise: Confirm or reject: IC50 of NC(=O)c1ccsc1NC(=O)Cc1ccc(F)cc1F lies strictly below 9 µM
Key: F

Exercise: Confirm or reject: IC50 of CC1CN(CC(=O)Nc2sccc2C(N)=O)CC(C)O1 (configuration not stated) lies strictly below 9 µM
Key: F

Exercise: Confirm or reject: IC50 of NC(=O)c1ccsc1NC(=O)Cc1c[nH]c2ccccc12 lies strictly below 9 µM
Key: F

Exercise: Confirm or reject: IC50 of NC(=O)c1ccsc1NC(=O)Cc1cccc(Cl)c1 lies strictly below 9 µM
Key: T

---

Biological target: Mitogen-activated protein kinase 8 (Homo sapiens, UniProt P45983)
Assay: Inhibition of JNK1 by TR-FRET assay
Give log10 of IC50 for every item shown.
Scale type: logarithmic (base 10). Underlying IC50 unit: µM.

Sample records with log10 of IC50:
1) Cc1sc(NC(=O)Cc2cccc3ccccc23)c(C(N)=O)c1C    1.41
2) Cc1cnc2sc(CC(=O)Nc3sccc3C(N)=O)cn12    0.40

// batch mode: one log10 of IC50 value per listed entry
1. NC(=O)c1ccsc1NC(=O)Cc1ccc([N+](=O)[O-])cc1
2. NC(=O)c1ccsc1NC(=O)Cc1ccc(OC(F)(F)F)cc1

Key:
[0.46, 0.76]

// batch mode: one log10 of IC50 value per listed entry
1. NC(=O)c1ccsc1NC(=O)Cc1c(F)cccc1F
2. NC(=O)c1ccsc1NC(=O)Cc1ccc(F)c(F)c1

Key:
1: 0.87; 2: 1.01
